Data credit: patent US12172995B2

- tested-on: human TLR9 (Homo sapiens, UniProt Q9NR96)
- Sequence (Q9NR96 26-1032): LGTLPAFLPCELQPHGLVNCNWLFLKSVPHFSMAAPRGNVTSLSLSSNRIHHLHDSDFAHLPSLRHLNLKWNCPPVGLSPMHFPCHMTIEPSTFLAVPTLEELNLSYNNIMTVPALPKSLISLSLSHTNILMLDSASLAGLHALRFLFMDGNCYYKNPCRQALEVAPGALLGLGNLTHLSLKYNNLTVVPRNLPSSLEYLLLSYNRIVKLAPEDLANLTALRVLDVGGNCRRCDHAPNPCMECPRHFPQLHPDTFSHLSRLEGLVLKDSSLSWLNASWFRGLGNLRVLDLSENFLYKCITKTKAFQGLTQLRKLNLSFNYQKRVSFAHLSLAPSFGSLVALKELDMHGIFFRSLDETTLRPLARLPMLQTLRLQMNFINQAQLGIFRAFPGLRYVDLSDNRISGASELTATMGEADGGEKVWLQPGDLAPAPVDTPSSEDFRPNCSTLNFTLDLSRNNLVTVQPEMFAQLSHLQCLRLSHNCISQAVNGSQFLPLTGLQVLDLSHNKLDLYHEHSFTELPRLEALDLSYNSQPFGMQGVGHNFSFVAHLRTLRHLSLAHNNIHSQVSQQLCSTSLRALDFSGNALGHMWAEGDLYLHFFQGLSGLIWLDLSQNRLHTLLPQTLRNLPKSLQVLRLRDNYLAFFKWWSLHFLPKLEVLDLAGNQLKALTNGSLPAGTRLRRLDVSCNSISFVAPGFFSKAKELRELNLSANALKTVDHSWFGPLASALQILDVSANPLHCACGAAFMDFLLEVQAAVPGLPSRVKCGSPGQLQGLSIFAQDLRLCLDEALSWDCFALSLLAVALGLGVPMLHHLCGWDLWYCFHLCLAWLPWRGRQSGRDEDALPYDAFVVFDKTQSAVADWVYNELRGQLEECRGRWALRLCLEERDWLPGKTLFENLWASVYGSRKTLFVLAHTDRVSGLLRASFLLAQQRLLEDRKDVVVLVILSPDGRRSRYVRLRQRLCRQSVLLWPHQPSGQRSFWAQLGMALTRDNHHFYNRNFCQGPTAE
- assay: TLR9 inhibition reporter assay (HEK-Blue SEAP)
- test-context: HEK-Blue cells overexpressing human TLR9, stimulated with ODN2006 5 nM, 22 hour incubation

>  <compound>
Cc1cc(-c2cc3[nH]nc(C4CCC(N5CC(F)C5)CC4)c3cc2C(C)C)cn2ncnc12 (stereo not shown) [Example 152]

>  <unit>
µM

>  <IC50>
13

$$$$
>  <compound>
Cc1cc(-c2cc3[nH]nc(C4CCC(N5CCC(F)C5)CC4)c3cc2C(C)C)cn2ncnc12 (stereo not shown) [Example 163]

>  <unit>
µM

>  <IC50>
6.23

$$$$
>  <compound>
Cc1cc(-c2cc3[nH]nc(C4CCN(CC(C)(C)O)CC4)c3cc2C(C)C)cn2ncnc12 [Example 113]

>  <unit>
µM

>  <IC50>
20.3

$$$$
>  <compound>
Cc1cc2c(C3CCN(C(=O)CN(C)C)CC3)n[nH]c2cc1-c1cc(C)c2ncnn2c1 [Example 20]

>  <unit>
µM

>  <IC50>
4.42

$$$$

###

- tested-on: UniProt:Q9NR96
- assay: TLR9 inhibition reporter assay (HEK-Blue SEAP)
- test-context: HEK-Blue cells overexpressing human TLR9, stimulated with ODN2006 5 nM, 22 hour incubation
measurement-name: IC50 (µM)

>  <query-smiles>
Cc1cc(-c2ccc3c(C(=O)NC4CCNCC4)c[nH]c3c2)cn2ncnc12

>  <tested-on>
UniProt:Q9NR96

>  <measurement-name>
IC50

>  <observed-measurement>
9.21

$$$$
>  <query-smiles>
CCc1cc2c(C3CCN(C(=O)CN(C)C)CC3)n[nH]c2cc1-c1cc(C)c2ncnn2c1

>  <tested-on>
UniProt:Q9NR96

>  <measurement-name>
IC50

>  <observed-measurement>
11.6

$$$$
>  <query-smiles>
Cc1cc2c(C3CCNCC3)n[nH]c2cc1-c1cc(C)c2ncnn2c1C

>  <tested-on>
UniProt:Q9NR96

>  <measurement-name>
IC50

>  <observed-measurement>
8.01

$$$$
>  <query-smiles>
Cc1cc2c(C3CCNCC3)n[nH]c2cc1-c1cc(C#N)c2ncnn2c1

>  <tested-on>
UniProt:Q9NR96

>  <measurement-name>
IC50

>  <observed-measurement>
5.61

$$$$

###

- tested-on: human TLR8 (Homo sapiens)
- Sequence (Q9NR97 27-1041): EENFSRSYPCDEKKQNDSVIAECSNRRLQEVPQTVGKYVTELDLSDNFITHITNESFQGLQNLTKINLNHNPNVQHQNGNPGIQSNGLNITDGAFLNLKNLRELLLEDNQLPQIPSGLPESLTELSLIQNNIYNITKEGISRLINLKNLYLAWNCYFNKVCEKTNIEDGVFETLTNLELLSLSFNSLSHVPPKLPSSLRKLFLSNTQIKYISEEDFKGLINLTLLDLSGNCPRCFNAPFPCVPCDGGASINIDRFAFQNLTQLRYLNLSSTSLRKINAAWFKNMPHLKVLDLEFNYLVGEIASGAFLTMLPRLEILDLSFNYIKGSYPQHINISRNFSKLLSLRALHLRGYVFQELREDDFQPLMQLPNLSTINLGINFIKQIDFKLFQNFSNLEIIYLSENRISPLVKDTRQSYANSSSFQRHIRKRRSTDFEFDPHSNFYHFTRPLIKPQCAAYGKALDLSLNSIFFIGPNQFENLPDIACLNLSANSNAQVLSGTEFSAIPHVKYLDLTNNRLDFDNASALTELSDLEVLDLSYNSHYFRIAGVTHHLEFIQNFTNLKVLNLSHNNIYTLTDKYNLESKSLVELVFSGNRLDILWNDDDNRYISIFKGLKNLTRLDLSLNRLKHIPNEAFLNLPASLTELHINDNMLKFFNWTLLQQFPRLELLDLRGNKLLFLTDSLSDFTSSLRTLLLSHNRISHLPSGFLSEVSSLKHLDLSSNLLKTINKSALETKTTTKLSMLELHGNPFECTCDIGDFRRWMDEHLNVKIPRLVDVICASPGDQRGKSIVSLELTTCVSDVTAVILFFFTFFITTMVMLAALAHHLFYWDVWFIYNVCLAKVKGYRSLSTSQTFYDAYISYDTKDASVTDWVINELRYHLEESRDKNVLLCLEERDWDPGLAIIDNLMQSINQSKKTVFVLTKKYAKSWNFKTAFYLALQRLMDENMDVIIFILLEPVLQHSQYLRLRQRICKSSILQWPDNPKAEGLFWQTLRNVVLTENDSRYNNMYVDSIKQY
- assay: TLR8 inhibition reporter assay (HEK-Blue SEAP)
- test-context: HEK-Blue cells overexpressing human TLR8, stimulated with R848 15.9 μM, 22 hour incubation
Parameter: log10 IC50. Scope: all listed entries.
measurement-name: log10 IC50 (log10 of the value in nM)

>  <compound>
Cc1cc2c(C3CCN(CC(=O)N(C)C)CC3)n[nH]c2cc1-c1cc(C)c2ncnn2c1 [Example 23]

>  <log10 IC50>
0.46

$$$$
>  <compound>
Cc1cc(-c2cc3[nH]nc(C4CCC(N5CCC(S(C)(=O)=O)C5)CC4)c3cc2C(C)C)cn2ncnc12 (single isomer, unassigned) [Example 212]

>  <log10 IC50>
-0.44

$$$$
>  <compound>
CCc1cc2c(C3CCN(CCC#N)CC3)n[nH]c2cc1-c1cc(C)c2ncnn2c1 [Example 106]

>  <log10 IC50>
-0.70

$$$$
>  <compound>
Cc1cc(-c2cc(C)c3ncnn3c2)cc2[nH]nc(OC3CCC(N(C)C)CC3)c12 (single isomer, unassigned) [Example 179]

>  <log10 IC50>
0.93

$$$$
>  <compound>
Cc1cc2c(C3CCC(NC(C)C)CC3)n[nH]c2cc1-c1cc(C)c2ncnn2c1 (single isomer, unassigned) [Example 38]

>  <log10 IC50>
-1.00

$$$$
>  <compound>
CCc1cc2c(C3CCN(CCC(F)(F)F)CC3)n[nH]c2cc1-c1cc(C)c2ncnn2c1 [Example 108]

>  <log10 IC50>
-0.70

$$$$
>  <compound>
Cc1cc(-c2cc3[nH]nc(C4CCC(N5CC6(CCOC6)C5)CC4)c3cc2C(C)C)cn2ncnc12 (stereo not shown) [Example 157]

>  <log10 IC50>
-0.40

$$$$
